Quick reference: pKi of the listed items.
study system: CB1 receptor (Rattus norvegicus (Rat))
assay text: rCB1 competition-equilibrium binding with [3H]CP-55,940, rat brain membranes
cond: rat brain membranes, [3H]CP-55,940; read-out: rCB1 Ki
Lab note: report pKi as minus log10 of the concentration in molar units, number only.

Item CCCCOC(=O)C1(c2cc(O)c3c(c2)OC(C)(C)[C@@H]2CC=C(C)C[C@@H]32)CCC1 was tested on CB1 receptor (Rattus norvegicus (Rat)); the reported pKi is 9.15

Record for CCCSC(=O)C(C)(C)c1cc(O)c2c(c1)OC(C)(C)[C@@H]1CC=C(C)C[C@@H]21 under target or system CB1 receptor (Rattus norvegicus (Rat)): pKi reported as 9.30

The compound CCOC(=O)C(C)(C)c1cc(O)c(-c2cc(C)cc(C)c2)c(O)c1 , tested on CB1 receptor (Rattus norvegicus (Rat)), showed pKi of 6.03

CB1 receptor (Rattus norvegicus (Rat)) data for CC1=CC[C@@H]2[C@@H](C1)c1c(O)cc(CC(=O)OCCCCBr)cc1OC2(C)C ; its pKi: 8.66

Tested system CB1 receptor (Rattus norvegicus (Rat)); pKi recorded for CC1=CC[C@H]2[C@@H](C1)c1c(O)cc(C(C)(C)C(=O)OCCCCCBr)cc1OC2(C)C was 8.92

// returns pKi for CC(C)(C(=O)OCCCCn1ccnc1)c1cc(O)c2c(c1)OC(C)(C)[C@@H]1CC=C(CO)C[C@@H]21 with CB1 receptor (Rattus norvegicus (Rat)); value = 7.60

pKi for CB1 receptor (Rattus norvegicus (Rat)) with input CCCCOC(=O)C(C)c1cc(O)c2c(c1)OC(C)(C)[C@@H]1CC=C(C)C[C@@H]21 (stereo partly shown) equals 9.15

Value (pKi, CB1 receptor (Rattus norvegicus (Rat))) for record CCCCCCC(C)(C)c1cc(O)c2c(c1)OC(C)(C)[C@@H]1CCOC(=O)C[C@@H]21 = 7.00

CB1 receptor (Rattus norvegicus (Rat)) data for CCCCOC(=O)[C@@H](C)c1cc(O)c2c(c1)OC(C)(C)[C@@H]1CC=C(C)C[C@@H]21 ; its pKi: 8.62

Value (pKi, CB1 receptor (Rattus norvegicus (Rat))) for record CCOC(=O)C(C)(C)c1cc(OC)c(-c2cc(Cl)cc(Cl)c2)c(OC)c1 = 6.00

---
Record for CCCCCNC(=O)C(C)(C)c1cc(O)c2c(c1)OC(C)(C)[C@@H]1CC=C(C)C[C@@H]21 under target or system CB1 receptor (Rattus norvegicus (Rat)): pKi reported as 8.20

# CC1=CC[C@@H]2[C@@H](C1)c1c(O)cc(CC(=O)OCCCCC#N)cc1OC2(C)C with CB1 receptor (Rattus norvegicus (Rat)): pKi is 7.84

For CC1=CC[C@H]2[C@@H](C1)c1c(O)cc(C(C)(C)C(=O)OCCCCBr)cc1OC2(C)C on CB1 receptor (Rattus norvegicus (Rat)), measured pKi was 8.92

* * *

study system: CB1 receptor (Rattus norvegicus (Rat), UniProt P20272)
assay text: rCB1 competition-equilibrium binding with [3H]CP-55,940, rat brain membranes
cond: rat brain membranes, [3H]CP-55,940; read-out: rCB1 Ki
assay readout: Ki (nM)
Report the value in nM with no unit label.

Past entries and their recorded results:
Form: molecule = CC1=CC[C@@H]2[C@@H](C1)c1c(O)cc(C3(C(=O)OCCCCN=[N+]=[N-])CCC3)cc1OC2(C)C ; Ki = 0.9

Looking up COC(=O)C(C)(C)c1cc(O)c2c(c1)OC(C)(C)[C@@H]1CC=C(C)C[C@@H]21 , I found its Ki recorded as 83.1

---
In plain terms, CCOC(=O)C(C)(C)c1cc(O)c2c(c1)OC(C)(C)[C@@H]1CC=C(C)C[C@@H]21 has a documented Ki of 2.7

Sure, the documented Ki for CC1=CC[C@@H]2[C@@H](C1)c1c(O)cc(C(C)(C)C(=O)OCCCC#N)cc1OC2(C)C is 0.5

Record CC1=CC[C@@H]2[C@@H](C1)c1c(O)cc(C3(C(=O)OCCCCC#N)CCC3)cc1OC2(C)C , field Ki: 0.9
